Catalogue of PBM binding z-score values
# Tested on: PPARg homodimer (NR concentration 180 nM)
# ASSAY_OVERVIEW: PBM binding z-score (relative to random genomic background probes); higher = stronger binding; sequences stand for … in GC…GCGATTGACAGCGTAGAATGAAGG

SEQUENCE_CONTENT	TGT	PBM binding z-score
CCTATTAGTTGACCATAACGGCAACCGAAGCTCG	PPARg homodimer (NR concentration 180 nM)	2.08
ATACCCAGGTGATCGTGAGGTCGTTGATACTAAC	PPARg homodimer (NR concentration 180 nM)	0.843
ATATGTAGGTTACGGGTCATTCAGGTTGGTTCGC	PPARg homodimer (NR concentration 180 nM)	3.88
TCGAGTAGGTTCCCAATGGGGCATTCAGCTTTCT	PPARg homodimer (NR concentration 180 nM)	-0.805
TAGCCTAGGTCATTGCGCCAGTATAGTACGCATC	PPARg homodimer (NR concentration 180 nM)	1.7
CCTTACGGGTTACTGACAGGTTATAGCATTTGGA	PPARg homodimer (NR concentration 180 nM)	1.21
GGAACGAAGGCATTCGAGTTGATAGCATGGCGAT	PPARg homodimer (NR concentration 180 nM)	-1.41
TCTGGGAGGACACGAAAGGTCAGAGCTCGACATC	PPARg homodimer (NR concentration 180 nM)	2.76
ATACCAAGGTGTTCGTGAGGTCGTTGATACTAAC	PPARg homodimer (NR concentration 180 nM)	0.594
CAAACTAGGTCACCGGAAGGTAAAAGTCCGCATG	PPARg homodimer (NR concentration 180 nM)	4.02
TCTAGCAGGTCAGAGGGTCACTCAAGAGGTACGG	PPARg homodimer (NR concentration 180 nM)	3.57
CCTCGGAGGACAAAAGGAGGTCAGAGCTGCCAGA	PPARg homodimer (NR concentration 180 nM)	1.84
TCTATTAGTTGAAGGGAAACCGACGAGTCCGTTT	PPARg homodimer (NR concentration 180 nM)	1.32
TCTTGTAGATCAAGGAGGTTAAGAAAGCCTGAGT	PPARg homodimer (NR concentration 180 nM)	0.474
GCAGACAGGTGAAACGCAGGTAACTCAAGGTGGC	PPARg homodimer (NR concentration 180 nM)	-0.279
TCTTGTAGATCAACAGAGGTTAAGAAAGTGCGCT	PPARg homodimer (NR concentration 180 nM)	0.896
CGTCAAAGTTCAAGGTAACGTAGCAGAAAGCAGC	PPARg homodimer (NR concentration 180 nM)	4.56
